- target-desc: Claudin 18.2 (CLDN18.2), expressed on CHOS-CLDN 18.2 / HEK293-CLDN 18.2 / HCC827-CLDN 18.2 cells (human, UniProt P56856-2 1-261)
- method-description: cell-based or functional assay
observable: Killing percentage, ADCC (PBMC, HEK293-CLDN18.2 cells), 1.6 µg/ml (%)
All answers are understood in %, so give the number only.

In plain terms, QP024025 (antibody, human IgG1, V domains shown, also called IMAB362; 175D10(IMAB362)) VH: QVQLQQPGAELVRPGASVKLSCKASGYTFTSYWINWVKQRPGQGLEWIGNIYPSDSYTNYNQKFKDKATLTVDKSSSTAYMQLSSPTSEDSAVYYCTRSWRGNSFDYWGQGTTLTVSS VL: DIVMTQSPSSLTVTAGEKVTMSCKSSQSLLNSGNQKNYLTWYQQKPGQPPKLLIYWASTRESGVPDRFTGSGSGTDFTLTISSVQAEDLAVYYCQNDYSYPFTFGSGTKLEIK has a documented Killing percentage, ADCC (PBMC, HEK293-CLDN18.2 cells), 1.6 µg/ml of 30

Summary for this binder, QP14631461 (antibody, human IgG1, kappa, V domains shown, also called QP14611463) VH: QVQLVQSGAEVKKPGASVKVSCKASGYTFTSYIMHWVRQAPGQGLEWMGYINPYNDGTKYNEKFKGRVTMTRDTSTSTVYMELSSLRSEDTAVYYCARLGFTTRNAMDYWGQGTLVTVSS VL: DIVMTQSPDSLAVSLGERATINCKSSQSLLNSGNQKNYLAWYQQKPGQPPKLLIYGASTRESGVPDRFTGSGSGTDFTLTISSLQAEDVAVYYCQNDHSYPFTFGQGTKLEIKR : Killing percentage, ADCC (PBMC, HEK293-CLDN18.2 cells), 1.6 µg/ml is 43.4

Item: QP14371433 (antibody, human IgG1, kappa, V domains shown, Humanized from QP190191; also called QP14331437) VH: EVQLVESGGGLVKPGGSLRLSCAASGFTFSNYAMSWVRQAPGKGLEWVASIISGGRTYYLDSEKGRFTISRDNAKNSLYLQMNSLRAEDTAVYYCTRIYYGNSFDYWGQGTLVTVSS VL: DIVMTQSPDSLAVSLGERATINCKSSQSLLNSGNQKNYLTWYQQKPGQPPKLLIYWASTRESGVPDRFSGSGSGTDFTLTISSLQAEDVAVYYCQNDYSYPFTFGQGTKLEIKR | Killing percentage, ADCC (PBMC, HEK293-CLDN18.2 cells), 1.6 µg/ml: 56.4

Entry QP14451440 (antibody, human IgG1, kappa, V domains shown, Humanized from QP192193; also called QP14401445) VH: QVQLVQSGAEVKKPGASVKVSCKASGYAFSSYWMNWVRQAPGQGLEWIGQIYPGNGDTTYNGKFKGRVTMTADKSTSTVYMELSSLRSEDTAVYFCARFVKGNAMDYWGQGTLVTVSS VL: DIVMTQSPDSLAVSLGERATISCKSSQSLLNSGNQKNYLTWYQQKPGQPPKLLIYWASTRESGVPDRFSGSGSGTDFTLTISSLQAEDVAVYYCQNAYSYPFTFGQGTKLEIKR ; Killing percentage, ADCC (PBMC, HEK293-CLDN18.2 cells), 1.6 µg/ml = 37.8
